Source listed as the Biogen ADME set (Fang et al. 2023).

Catalogue of compounds with associated MDR1-MDCK efflux ratio

| compound | MDR1-MDCK efflux ratio |
| --- | --- |
| Fc1ccccc1-c1c[nH]nc1C1CCCN1Cc1ccc2ncccc2c1 (centres undefined) | 2.26 |
| CC1=CCN(C(=O)c2cc(C)nc3cc(C)cc(C)c23)CC1 | 1.03 |
| CN(C)CCOc1ccc(-c2nc(-c3ccncc3)c(-c3ccc4c(c3)CC/C4=N\O)[nH]2)cc1 | 4.8 |
| O=S(=O)(c1cccc2c(O)nccc12)N1CCCNCC1 | 8.23 |

* * *

Catalogue of molecules with associated fraction unbound, human plasma

| molecule | fraction unbound, human plasma |
| --- | --- |
| Nc1ncc(-c2cccc(C(F)(F)F)c2)c(C2CCCCN2C(=O)c2ccccc2)n1 (stereo not drawn) | 0.00903 |
| CCOc1cc(CC(=O)N[C@@H](CC(C)C)c2ccccc2N2CCCCC2)ccc1C(=O)O | 0.0128 |
| Cc1nccc(-c2cn(Cc3ccccc3)c3cnccc23)n1 | 0.133 |

* * *

measurement-type: intrinsic clearance, human liver microsomes (mL/min/kg)

| molecule | inequality-symbol | reported-measurement |
| --- | --- | --- |
| COc1ccccc1CNc1cn[nH]c(=O)c1Cl | ≤ | 4.74 |
| O=C(Nc1cncc2ccccc12)c1ncccn1 | = | 37.6 |
| CC(C)Cc1ccc(-c2nc(-c3ccc(CN4CC(C(=O)O)C4)cc3)no2)cc1 | = | 7.6 |
| Cc1ccc2nc(C)c(C(=O)N3CCC(C(=O)Nc4ccncc4)CC3)cc2c1 | = | 21.1 |
| O=S(=O)(Nc1ccc(C(O)(C(F)(F)F)C(F)(F)F)cc1)c1ccccc1 | = | 7.61 |
| Oc1ccccc1NCc1ccccn1 | = | 24.9 |
| O=C(c1cccc2ccccc12)N1CCCC(C(=O)N2CCc3ccccc3C2)C1 (stereo not drawn) | = | 696 |
| CS(=O)(=O)NC1CCCN(c2nc3ccccc3o2)C1 (stereo not drawn) | ≤ | 4.74 |

* * *

| compound | MDR1-MDCK efflux ratio |
| --- | --- |
| NC(=O)COc1ccccc1-c1ccccc1 | 0.621 |
| Nc1ccc(C(=O)N2CCOCC2)c(Cl)c1 | 0.476 |
| CON(C)C(=O)c1cccc2c(C)c(C)[nH]c12 | 0.476 |
| Nc1ccccc1OCCn1ccnc1 | 0.815 |
| CN1CCN(CCOc2ccccc2N)CC1 | 0.548 |
| COc1ccc(OC)c(Cn2cnc3cn(C)nc3c2=O)c1 | 2.56 |
| COc1nccnc1N1CCC(C(=O)Nc2cccc(F)c2)CC1 | 0.629 |
| CNc1ncc(CN(C)CCN2CCCCC2)cn1 | 1.13 |
| CN(C(=O)CNC(=O)c1ccccc1OCC(=O)Nc1ccc(Br)cc1)c1ccccc1 | 3.43 |
| Cc1ccc(-n2c(S)nnc2-c2ccc(O)cc2)c(C)c1 | 34.6 |
| COC(=O)c1cccc2c1CCCN2C(=O)c1ccc(F)cc1F | 0.708 |
| Cc1c(C(=O)NCCCN(C)C)sc2ncnc(Nc3ccc(F)cc3OC(C)C)c12 | 59.2 |
| C#Cc1cccc(N(CCC(=O)NC(N)=O)Cc2cccs2)c1 | 1.88 |
| CC1(c2nnc(-c3ccc4c(c3)OCCO4)o2)CCOCC1 | 0.742 |
| COCC1(CNC(=O)c2cc(Cl)cnc2O)CCC1 | 5.64 |
| CC1(C)CC[C@]2(NC(=O)C(C)(F)F)CC[C@]3(C)[C@H](C(=O)C=C4[C@@]5(C)C=C(C#N)C(=O)C(C)(C)[C@@H]5CC[C@]43C)[C@@H]2C1 | 6.31 |
| CCN(C(=O)CN1CCNC(=O)C1)c1ccc(F)cc1 | 49.4 |
| Cc1ncccc1CNc1nnc(C(C)(C)C)s1 | 1.28 |
| COC(=O)N[C@H](C)CNc1nccc(-c2cn(C(C)C)nc2-c2cc(Cl)cc(NS(C)(=O)=O)c2F)n1 | 129 |
| COc1ccc(Nc2nc(N)nc(CN3CCN(Cc4ccccc4)CC3)n2)cc1 | 10.9 |
| CC(C)(C)NC(=O)c1cncn1C1CCN(c2ccc(-c3nnc(C(F)(F)F)o3)cn2)CC1 | 8.45 |
| Cc1nc(-c2ccc(Cl)c(Cl)c2)n(CC(C)(C)O)n1 | 0.634 |
| CC(C)(C)c1ccc(C(O)CN2CCC(O)(c3ccc4c(c3)OCO4)CC2)cc1 (stereo unspecified) | 0.698 |
| CCCn1ccnc1CNc1nc2c(s1)c(C)nn2C | 8.95 |
| O=c1c2cccn2c2ccccc2n1CCCN1CCC(c2ccc(Cl)cc2)CC1 | 5.19 |
| Cc1csc(NC(=O)CCc2ccncc2)n1 | 0.876 |
| CN(Cc1ccc(OC(F)(F)F)cc1)Cc1cn(C)nn1 | 0.666 |
| CN(CC1CCC1)C(=O)C1CCN(c2ccc3nncn3n2)CC1 | 11.6 |
| CN1CCN(C(=O)c2cc(Br)cnc2Cl)c2cnccc21 | 4.54 |
| O=C(CCCc1nc2ccccc2[nH]1)N1CCCC1 | 17.5 |
| CCn1nc(C2CCCC2)nc1-c1ccncc1 | 0.716 |
| CCn1c(-c2nonc2N)nc2cnc(Oc3cccc(NC(=O)c4ccc(OCCN5CCOCC5)cc4)c3)cc21 | 7.8 |
| Cc1cc(NCC2(c3ccncc3)CC2)ncn1 | 2.49 |
| CC(C)(C)N1CCCN(C(=O)CNc2ccc(C#N)cc2)CC1 | 0.887 |
| COCCc1nsc(Oc2ccc(C)cc2Br)n1 | 0.578 |
| Cc1nccc(NC(=O)c2ccc(Cl)nc2Cl)n1 | 0.548 |
